Values compiled from the DeepSol protein solubility set.

- experiment: soluble on expression in E. coli; label from the status in PepcDB or PDB records
measurement-type: soluble on expression in E. coli

MSLSKRSIPNVDWANQLENAIRQFVKEKLELIMREEIKNFLEIEQAGTPNMRNGYYQRNLDTQYGRIEGLLVPRDRNGEFQTQLFAPYQRHTGWLEEAIIRMYQSGMSTREIGKFIERILGSTYSPATISRITDVVKEDIEKWHARPLHQRYSVLYLDGLYVKLRRDTVEKEVIYVVLGVNEEGYREILDFFVGGQESAYVWQEILQQLYKRGVKEVLLGVFDGLPGLEEAFKAVYPKADVQRCVVHKVRNTLSRVRKKDQFEMAEDLKLIYRSPNKEIALEMFQQFQSKWSHKYPREVQSWANELDVLLTFMDYPSSIRSVIYTTNAIERTIKEIRKRLKPMNSLSSLEAAEKVVYLTIQDFNEKWAGRKLRGFAEAQEALQRMFEEREGHHHHHH : not soluble
MGSDKIHHHHHHMIGRKRKYEDPHIRSFHELLSGHNPVLYKKEDLLAYDCDGFTIHKHLPKAVVFPENTREVASIVRYCHDHNLPFLARGAGTGLSGGAIPINGEVIISLVRMKRLLEVDLKNRRAIVEPGYVNLKLTQSIEDKGYYYAPDPSSQYCCTIGGNVAENAGGAHCLKYGVTTNHILGMEVVLPNGDIVEIGKAGILDEPGYDLLGLMTGSEGTLGIVTKITVRILKHPEAKQTVLAYFDKVSDASHTVSDIISEGIVPAALEMMDRIAMEGVEAAAFPIGHLLDAEAVLLIEVDGISAGMDQQIERILTVCRKHHVREVKDEMVGEPKNRLWCHGCHLTRLPRTRWSDPADKASGRAFNDSKNQRNIRATNRKYFSRR : not soluble

====

- experiment: soluble on expression in E. coli; label from the status in PepcDB or PDB records
measurement-type: soluble on expression in E. coli

Reference set (5 entries):
MSDTTELVDLAVIFPDLEIELKYACADNITGKAIYQQARCLLHKDAITALAKSISIAQLSGLQLVIYDAYRPQQAQAMLWQACPDPQYVVDVTVGSNHSRGTAIDLTLRDEHGNILDMGAGFDEMHERSHAYHPSVPPAAQRNRLLLNAIMTGGGFVGISSEWWHFELPQAASYPLLADQFSCFISPGTQHVS : not soluble
SSDLGSEELEEEGENDLGEYEGERNELGERHGHGKARLPNGDTYEGNYESGKRHGQGTYKFKNGARYVGDYVKNKKHGQGTFVYPDGSRYEGEWADDQRHGHGVYYYVNNDTYTGEWFNHQRHGQGTYFYAETGSKYVGTWVHGQQEGAAELIHLNHRYQGKFINKNPVGPGKYVFDVGCEQHGEYRLTDVERGEEEEEEETLVSIVPKWKALKITELALWTPTLSEEHPPAEGQGQEEVQGATGAGEPSDDIQAEGFEVDAEPRTGEEDIDFRQESQENSYDLDQGNPNFDEEQLDLQE : soluble
MLMPRRMKYRKQQRGRLKGATKGGDYVAFGDYGLVALEPAWITAQQIEAARVAMVRHFRRGGKIFIRIFPDKPYTKKPLEVRMGKGKGNVEGYVAVVKPGRVMFEVAGVTEEQAMEALRIAGHKLPIKTKIVRRDAYDEAQ : soluble
MTAHFRPAVYDLPRDGHTVFRWEHPPQQATVELERLQRKQSLAAAFRVFARLGFDMGGAGHITVRDPGRPDHFWVNPVGVYFGHVRVRDLLLVNPEGAVIEGEGALNLAAFAIHAALHEAHPEVVAAAHAHSLYGKAWSSLGRLLDPLTQDACAFYERHGLFDNFSGVVLEASEGVRIAAALAGRKALILQNHGLLTVGETVEAAVWRFIAMDNAAQTQLLAEAAGTPRPIPHEVARHTARQVGTEFGGWFSFQPYRERIVREEPDFLDLEHHHHHH : not soluble
MDKSELFLTFEAKVKGKKINLPDLKIADGVISTEALASALNASAAIAPDAFQRIIKQAYDANIMFLIQQAQIRAQEINKGEVKDWKDLVANAKDAPNQDVTVEVQAYASPDGGVELNEKLSEQREKNTTTALKKQFQKSNIKDVEINAHYTAQDWEGFKQLVEKSDIQDKELVLRVLSMYPDPEQREQEIKNISTVFRQLADDILPQLRRSRLIANVEIIGKSDDEIKRLAAQNPGRLTVEELLYSATLLESPAQKE : not soluble

Okay, next one:
Challenge: Which soluble on expression in E. coli is reported for this sequence? `MAKMTTLKMKERLEKELQAPNRQFSYNRDNDALTVVQSGKKVTLAIPQIIANYENDGDAAVEKIVYYVEEGFRAAAGNVELENNKANVYPVVRATSFPGETKAGEVLLTDDHTAETKIFYAVDLGKSYRFIEESMLKKAQLTHEEIREAAFNNLANLEIPLKKDSVNGNDFYFVRTNDGYDASRLLNEAFLREMREKLTGEMVLAVPHQDVLIIGDIQDNTGYDVLAHMTMDFFADGLVPITSLPFVYNNGKLEPIFIMAKNRLKE`
Response given: not soluble

====

- experiment: soluble on expression in E. coli; label from the status in PepcDB or PDB records
measurement-type: soluble on expression in E. coli

MNSLLAELNRLGVAHATTEDVFIFVDRLFQHFSFLFQAEESGPRRLELVASVFEHLTVECVNDILDACSHPDVNVAETSNTCRPCPSPVPSAPKTVSGAQTSCATPRAPVTLEHHHHHH : not soluble
MIDVGGWYNKAELKAKGDEIVKEAKLATRREAESYRAALDAQAQQEARSKGVENTEHIRGMNPITPQEEAEFAAYLDESFSWIPSAFEGYGDPNPDDFDGIIKDLAKVEGTFGGSQSSTKNGDLAWTEKAKSEIEEWKGVFAENLYNNLLLPLPTIQDNHGKIAHVLTEAMKGTQNIYNGQKRDISQLADDTIKQLKKCGTRDGDNTKLGLTVAACLMGVAAAALALPSGGTSVYVTGIVMASISSSTIITNATVKPGDGDIGGKTVNDVIKSMSDGMSRISTEVSEQEQKVVKVLSKNYEMLTGLRQLGNSSKKPTPISPMRPTIADSKNPSSGLKPEGPQ : not soluble

====

- experiment: soluble on expression in E. coli; label from the status in PepcDB or PDB records
measurement-type: soluble on expression in E. coli

VTAVPTDSAEKPAVADAGVRSVTRVIDLLELFDAAHPTRSLKELVEGTKLPKTTVVRLVATMCARSVLTSRADGSYSLGPEMLRWVRLAGRTWAPPEEVVDIMRQLSADTGETVNLYIRQGLSRVVVAQCESTATVRSVIPLGVPYPLWAGAAGKILLLAAPELIDDVAADSPHGPEFADQLREKVEDGRERGYQLVHGERELGSSGLSFPLVDSHGTVVAALTLGGPTGRFTEDRTPHYIECTRAAAEEISAIGLPGLD : soluble
MGQDHIRYDILAQDALRGVIRKVLGEVAATGRLPGDHHFFITFLTGAPGVRISQHLKSKYAEQMTIVIQHQFWDMKVTETGFEIGLSFSDTPEKLVIPYNAIRGFYDPSVNFELEFDVPLAKEEEMEEAEITAYPVSHEAKPASETPKSGEEKKEGSVVSLDAFRKKQLEHHHHHH : soluble

====

- experiment: soluble on expression in E. coli; label from the status in PepcDB or PDB records
measurement-type: soluble on expression in E. coli

Some entries whose results are on file:
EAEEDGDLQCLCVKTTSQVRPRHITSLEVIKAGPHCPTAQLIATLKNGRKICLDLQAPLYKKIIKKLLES : soluble
MERLKIQVLVDNNTYIDRYFVGEPAVSYYIEIDGNRILFDSGYSDVFISNAEKLNIDLGNLTHVVFSHGHNDHTRGIQFLENRYDLSTVELVSHPNCFIPRKHGEKSIGAPFSAEEIKNIFMYNPKDKPFNLSKNCVFLGEIPSINDFEKRAKIGKCKIGDLWEDDYVLDDSAIVCKTDKGIFIVTGCSHSGICNIVEYAKKVCGDDRVIGILGGFHLFELNNRLDSTIQYLDKEEIRMLYPCHCVSFKVKAKMNEILNINEVGVGLTISILEHHHHHH : soluble
ERSIGFDGVMYFYSDTEKIRDAAFEAALQDQLEWKIEGLKPYVIPADKTLSDRICREDILRGVTIAANGFYGPQGRRLRLPLKDEDLNRKIQAFDFNGSRITNYEMESSSLAGLAALMGHEAITVCCIIAGRKSEKMNTSYQGSIEGLIDLVLERI : not soluble
MATITDNDVALTITKIHQIQGSGTAFNSAFGGIRTIEGVVVAAFPGGSGLNGFFVQEEDADTDNDSTTSEGIFVFDPTGQFSGSVGDKVRVTGSVSEFSTNNGVSSLTQLSSVSSIINLGADILPKMSNIQLPVTTVADLERYEGMRVNISAGNGDLTVTEHFQLGRFGQVVLSATGTSNQPGTDGRLEQYTQFNDPSVAGYAAYLDEIAKRRIILDDGSSTQNPATIIFGRGGEPLSATNTLRGGDTVASITGVLDQRFEGYRVQTSTGVDFTPANPRPATTPDVGGTLKVASFNVLNYFNGDLEHHHHHH : not soluble

Challenge: Can you share its soluble on expression in E. coli? I mean this sequence: `MSLSSSCIEEVSVPDDNWYRIANELLSRADITINGSAPSDIRVKNPDFFKRVLQEGSLGLGESYMDGWWECERLDIFFSKVLRAGLENQLPHHVKDTLRILGARLINLQSKKRAWIVGKEHYDLGNDLFSRMLDPYMQYSCAYWKDADTLEAAQQAKLKLICEKLQLQPGMRVLDIGCGWGGLSQYMATHYGVSVVGVTISAEQQKMAQTRCEGLDVSILLEDYRDLNDQFDRIVSVGMFEHVGPKNYNTYFEVVDRNLKPDGLFLLHTIGSKKTDHNVDPWINKYIFPNGCLPSVRQIAEASESHFVMEDWHNFGADYDTTLMAWHERFINAWPEIAGNYNERFKRMFSYYLNACAGAFRARDIQLWQVVFTRGVENGLRVPREGHHHHHH`
Response given: soluble

Challenge: Would you mind telling me what soluble on expression in E. coli value was observed for `MGSDKIHHHHHHMKTKETPEQKPEDMPIPIVDITSVEQQTVSLNLPSYGVVTPKYKTQLVTEVQGRMLTISPQFVAGGIVKKGDQLAQIEPSDYEADLMQAEATLAQATAALNEEIARGEVAKIEFKGYDKGLPPELGLRIPQLKKEQANVKYAQAALARAQRNLERTIIRAPFDGIIKARNVDLGQYVTLGTNLGELYDTSIAEIRLPISNDDLAYLESVDNPDTQVTLSASLAGKENTWIGNIIRSEGVIDADNRMVYLVAEIKDPYLREHKTQGSLPLKYGSFVNAVIKGRTVDGIVKLPRHVVRNEHVALINDNNIVEMRHVNVVRSDLQNVFIKDSLKTGERVAITHFNNMANGQLVKVIGEETKPAQTPAPESSLAATGVK` ?
Response given: not soluble

Challenge: Dear colleague, I am looking for the recorded soluble on expression in E. coli of the following sequence: `MSEIGTGFPFDPHYVEVLGERMHYVDVGPRDGTPVLFLHGNPTSSYLWRNIIPHVAPSHRCIAPDLIGMGKSDKPDLDYFFDDHVRYLDAFIEALGLEEVVLVIHDWGSALGFHWAKRNPERVKGIACMEFIRPIPTWDEFHHTEVAEEQDHAEAARETFQAFRTADVGRELIIDQNAFIERVLPGGVVRPLTEVEMDHYREPFLKPVDREPLWRFPNELPIAGEPANIVALVEAYMNWLHQSPVPKLLFWGTPGALIPPAEAARLAESLPNCKTVDIGPGLHYLQEDNPDLIGSEIARWLPAL`
Response given: soluble
